FYI, the data here is from the METLIN SMRT retention time set (Domingo-Almenara et al. 2019).

experiment: gradient 5% acetonitrile 3 min, to 50% in 2 min, to 85% in 15 min, held 3 min, 100 µL/min; settings: column: Zorbax Extend-C18 2.1 x 50 mm; eluents: water / acetonitrile, 0.1% formic acid
// thresholds for RP-LC retention time classes: class 0: < 700 s; class 1: ≥ 700 s and < 900 s; class 2: ≥ 900 s

Q: Hi there! Could you help me figure out the category for O=C(Nc1cnc(-c2cccc(Cl)c2)nc1)c1nccc2ccccc12 please?
Ans: class 2

Q: Entry CCOC(=O)C1=C(N)Oc2cc(C)n(CCN(C)C)c(=O)c2C1c1ccccc1 (stereo not given) belongs to which category?
Ans: class 0

Q: Class for CN1c2cc(F)ccc2C(=O)NC12CCN(C(=O)NCc1ccc(F)cc1)CC2 ?
Ans: class 1

Q: Could you tell me which band CC(Cc1ccco1)NC(=O)C1CCN(S(=O)(=O)c2ccc3c(c2)NC(=O)CO3)CC1 (stereo not given) belongs to?
Ans: class 1

Q: Class? Entry: COc1ccc2c(c1)C1(CCN(S(=O)(=O)c3ccc(C)cc3)C1)C(=O)N2C (stereo not given)
Ans: class 2

Q: Could you place Cn1cc(-c2cc3n(n2)CCCN3C(=O)CCC(=O)N2CCN(c3ccccc3)CC2)c2ccccc21 in its proper category? Many thanks.
Ans: class 1

Q: Hey, which category is O=C(Cc1csc2nc(-c3ccccc3)cn12)Nc1cccc(F)c1 in, do you know?
Ans: class 1

Q: Kindly identify the class of COC(=O)CNC(=O)N1Cc2ccccc2OC2(CCN(C(C)C)CC2)C1 .
Ans: class 0

Q: Please classify: COCCC(=O)N1CCCCC1c1nncn1Cc1ccccc1 (stereo not given)
Ans: class 0

Q: // bin(item) where item = CCC(NC(=O)C1CCN(c2nnc(-c3ccc(OC)cc3)o2)CC1)c1cccs1 (stereo not given)
Ans: class 1

Q: Record CCc1ccc(S(=O)(=O)NCCc2cn(CC(C)C)c3ncccc23)cc1 — which class?
Ans: class 2

Q: GET /class?item= Cc1ccc(-c2nc(-c3ccnc(N4CCOCC4)c3)no2)cc1F
Ans: class 2

Q: Please let me know in which category the item CC(C)c1nnc2n1CCN(C(=O)c1ccsc1)C2 belongs.
Ans: class 0

Q: Exercise: read the entry Cc1[nH]c2ccccc2c1C(=O)C(=O)NCC1COc2ccccc2O1 (stereo not given) and state which class it falls under.
Ans: class 1

Q: Category lookup for the molecule CC(C)CN1CCN(Cc2nc(-c3ccc(N4CCCC(C)C4)nc3)no2)CC1 (stereo not given)
Ans: class 0

Q: Dear colleague, I would appreciate it if you could identify the bin for Cc1ccccc1OCc1nc(-c2ccc3c(c2)oc(=O)n3C(C)C)no1 and reply at your convenience.
Ans: class 2

Q: Band assignment needed for COc1cccc(S(=O)(=O)N2CCc3c(c(-c4nnc(-c5ccccc5)o4)nn3C)C2)c1 please.
Ans: class 2

----------
What RP-LC retention time was measured for each of the following?
experiment: gradient 5% acetonitrile 3 min, to 50% in 2 min, to 85% in 15 min, held 3 min, 100 µL/min; settings: column: Zorbax Extend-C18 2.1 x 50 mm; eluents: water / acetonitrile, 0.1% formic acid
Answer with the figure and its unit, nothing else.

Per the records, this molecule ( Cc1ccc(-c2cc(C(=O)NC3CCCCC3)c(C)[nH]2)cc1C ) has RP-LC retention time equal to 1020 s

Per the records, this molecule ( Cc1cccc(CNC(=O)CN2C(=O)C3CCCCN3c3ccc(S(=O)(=O)N4CCCC4)cc32)c1 (stereo not given) ) has RP-LC retention time equal to 1080 s

// sample COC(=O)CNC(=O)NC(C(=O)N1CCc2ccccc21)c1ccccc1 (stereo not given) , its RP-LC retention time was 792 s

Briefly, RP-LC retention time measured for CCOc1ccc2c(n1)CCN(C(=O)NCCOC)C2 : 624 s

Form field RP-LC retention time, entry CC(C)Cn1cc(CCNC(=O)Nc2ccc(F)cc2)c2cccnc21 : 812 s

Record COC(=O)Cn1c(C)cc(=O)n2nc(-c3cccc(C)c3)nc12 , field RP-LC retention time: 784 s

For record CC(C)c1ccc(S(=O)(=O)N(CC(=O)N2CCNCC2)CC2CCCO2)cc1 (stereo not given) the listed RP-LC retention time is 602 s

Memo: Cc1ccc(-c2noc(Cc3nnc(-c4ccc(C)c(F)c4)o3)n2)cc1C , reported RP-LC retention time: 1210 s

Summary for this molecule, Cc1ccc(-c2nc3cccnc3n2CCCNC(=O)NCc2ccco2)cc1 : RP-LC retention time is 674 s

RP-LC retention time reported for this molecule COC(=O)N1CCN(CCNC(=O)NC2CCCCC2)CC1 : 503 s

The molecule listed as CCn1ccc(C(=O)N2CCC[C@H]2c2nc(-c3ccccc3)n[nH]2)n1 has a reported RP-LC retention time of 662 s

Entry Cc1ccc(-n2nc(CO)c(C(=O)NC3CCCC3)n2)cc1 — recorded RP-LC retention time = 1030 s

Noted for Cc1nnc2ccc(S(=O)(=O)Nc3ccc(F)c(F)c3)cn12 : its RP-LC retention time reads 692 s

Cc1noc(-c2ccc(=O)n(CC(=O)NC3CCc4ccccc43)c2)n1 (stereo not given) yielded RP-LC retention time of 669 s

Sample Cc1cccc(CNC(=O)c2nc3cccnc3n(CC(C)C)c2=O)c1 ; RP-LC retention time observed: 580 s

Query CCOC(=O)C1CCN(C(=O)COc2ccc(NC(=O)C3CC3)cn2)CC1 yields RP-LC retention time of 682 s

# RP-LC retention time of Cc1ccc(-c2csc(NC(=O)CN3CCN(C(=O)C4CCCO4)CC3)n2)cc1 (stereo not given) = 681 s

Form: molecule = CCn1cc(-c2nc(-c3ccc(OC)c(OC)c3)no2)c(=O)c2cc(F)ccc21 ; RP-LC retention time = 811 s

# RP-LC retention time (molecule: CCN1CCn2cc(S(=O)(=O)NCc3ccccc3Cl)cc2C1=O ) is 713 s

// RP-LC retention time lookup, molecule = CCOC(=O)c1c(C)[nH]c(C)c1S(=O)(=O)N1CCC(C(=O)Nc2ccc(NC(C)=O)cc2)CC1 , result: 666 s

# RP-LC retention time (molecule: O=C1[C@H]2CN(Cc3ccccc3Cl)C[C@H]2C(=O)N1CCN1CCc2ccccc2C1 ) is 661 s

Summary for this molecule, O=C(NC1CCS(=O)(=O)C1)c1ccc(N2CCCC2)nn1 (stereo not given) : RP-LC retention time is 520 s

RP-LC retention time in this record for Cc1cccc2c(C(=O)NC(C)C)cc(N3CCCC3)nc12 : 611 s

The recorded RP-LC retention time for entry Cc1ccc(NC(=O)Nc2nccn(-c3ccc(F)c(F)c3)c2=O)cc1F equals 1020 s

Form: molecule = Cc1nn(-c2ccc(Cl)cc2)c2sc(C(=O)O)cc12 ; RP-LC retention time = 1010 s

# RP-LC retention time of CCOC(=O)CC(=O)CSc1ncnc2c1cnn2-c1ccc(F)cc1 = 985 s

For reference, reported RP-LC retention time for O=C(NCCC1CCN(C(=O)Nc2cc(F)cc(F)c2)CC1)C1CCC1 stands at 810 s

Field RP-LC retention time (entry O=C(Nc1nccs1)C(=O)c1c(-c2ccccc2)cc2ccccn12 ) reads 866 s

Field RP-LC retention time (entry Cc1ccn2cc(-c3cccc(S(=O)(=O)N4CC(C)OC(C)C4)c3)nc2c1 (stereo not given) ) reads 647 s

Per the records, this molecule ( CSc1ccc(-c2nc3cnccn3c2Nc2cccc(C(=O)NC3CCCCC3)c2)cc1 ) has RP-LC retention time equal to 892 s

The value of RP-LC retention time measured for the molecule CSc1ccc(CNC(=O)c2cn3ccc(C)cc3n2)cc1 turned out to be 699 s

Kindly note the recorded RP-LC retention time for CCOc1nccnc1N1CCC(NS(=O)(=O)C2CC2)C1 (stereo not given) , which is 1230 s

# molecule O=C1NCCCn2cc(S(=O)(=O)NCc3ccc(F)cc3Cl)cc21 ; its RP-LC retention time = 686 s

What the record says about Cc1ccc2cc(CN3C[C@@H](CO)[C@H](c4ccccn4)C3)c(=O)[nH]c2c1 : RP-LC retention time is 585 s

Query O=C(NCC1CCS(=O)(=O)C1)c1nc2ccccc2s1 (stereo not given) yields RP-LC retention time of 659 s

Given item COc1ccc(NC(=O)Cn2cccc2-c2nnc(-c3ccccc3)o2)c(OC)c1 , the value recorded as its RP-LC retention time is 993 s

Short answer for O=C1NC2=C(C(=O)CCC2)C(c2cccc([N+](=O)[O-])c2)N1 (stereo not given) : RP-LC retention time was 606 s

The recorded RP-LC retention time for CCN(CC)S(=O)(=O)c1cc(-c2nc(C(C)C)cs2)sc1C is 1270 s

Field RP-LC retention time (entry O=C(C1CCOC1)N1CC(Oc2ccc(-c3nc(-c4ccccc4)no3)cc2)C1 (stereo not given) ) reads 952 s

Sure, the documented RP-LC retention time for Cc1ccc(-c2nc(C3CC(=O)N(C4CCCCC4)C3)no2)cn1 (stereo not given) is 771 s
